I'd be grateful if you could share measured GI50 for these entries.
assay: Cytotoxicity against Homo sapiens (human) colon cancer cells after 48 hr by SRB assay; assay type: functional; conditions: Cancer cell lines
Answers are plain numbers, in µM.

| Molecule | GI50, µM |
| --- | --- |
| O=C1CCS/C(=N\S(=O)(=O)c2ccc(N3N=C4c5ccccc5CC4C3c3cccs3)cc2)N1C(=O)c1ccccc1 (centres undefined) | 27.4 |
| O=C(Nc1ccccc1)NS(=O)(=O)c1ccc(N2N=C3c4ccccc4CC3C2c2cccnc2)cc1 (centres undefined) | 26.2 |

// for each molecule below, give its GI50
1. O=S(=O)(/N=c1\scc(-c2ccccc2)n1-c1ccccc1)c1ccc(N2N=C3c4ccccc4CC3C2c2cccs2)cc1 (centres undefined)
2. O=C(Nc1ccccc1)NS(=O)(=O)c1ccc(-n2nc3c(c2-c2cccs2)Cc2ccccc2-3)cc1

1. 68.1
2. 20.4

----------
test system: OVCAR-3; assay: Cytotoxicity against Homo sapiens (human) OVCAR3 cells after 48 hr by SRB assay; type: functional; conditions: OVCAR-3, 48 h
Metric Name: GI50 (µM)
One number for each entry, in µM.

| Compound | Units Label | GI50 |
| --- | --- | --- |
| O=C(Nc1ccccc1)NS(=O)(=O)c1ccc(N2N=C3c4ccccc4CC3C2c2cccnc2)cc1 (stereo not given) | µM | 21.6 |
| NS(=O)(=O)c1ccc(-n2nc3c(c2-c2cccs2)Cc2ccccc2-3)cc1 | µM | 14.4 |
| NS(=O)(=O)c1ccc(N2N=C3c4ccccc4CC3C2c2cccs2)cc1 (stereo not given) | µM | 24.8 |

// for each compound below, give its GI50
1. O=C(c1ccccc1)n1c(-c2ccccc2)cs/c1=N\S(=O)(=O)c1ccc(N2N=C3c4ccccc4CC3C2c2cccs2)cc1 (stereo not given)
2. O=C1CS/C(=N\S(=O)(=O)c2ccc(N3N=C4c5ccccc5CC4C3c3cccs3)cc2)N1C(=O)c1ccccc1 (stereo not given)
3. O=S(=O)(NC(=S)Nc1ccccc1)c1ccc(N2N=C3c4ccccc4CC3C2c2cccs2)cc1 (stereo not given)

55.2
59.2
17.2

// for each compound below, give its GI50
1. O=C(NC(=S)NS(=O)(=O)c1ccc(N2N=C3c4ccccc4CC3C2c2cccs2)cc1)c1ccccc1 (stereo not given)
2. O=C(Nc1ccccc1)NS(=O)(=O)c1ccc(-n2nc3c(c2-c2cccs2)Cc2ccccc2-3)cc1

1. 30.6
2. 21.8

----------
system: RPMI-8226; assay: Cytotoxicity against Homo sapiens (human) RPMI8226 cells after 48 hr by SRB assay; assay type: functional; details: RPMI-8226, 48 h
Strictly below 30 µM in GI50: t. Otherwise: f.

| Compound | Target Entity | Class Label |
| --- | --- | --- |
| NS(=O)(=O)c1ccc(N2N=C3c4ccccc4CC3C2c2cccs2)cc1 (configuration not stated) | RPMI-8226 | f |
| NS(=O)(=O)c1ccc(-n2nc3c(c2-c2cccs2)Cc2ccccc2-3)cc1 | RPMI-8226 | t |
| O=C1CS/C(=N\S(=O)(=O)c2ccc(N3N=C4c5ccccc5CC4C3c3cccs3)cc2)N(c2ccccc2)C1 (configuration not stated) | RPMI-8226 | f |

Problem: For the compound O=S(=O)(/N=c1\scc(-c2ccccc2)n1-c1ccccc1)c1ccc(N2N=C3c4ccccc4CC3C2c2cccs2)cc1 (configuration not stated) , is GI50 under 30 µM? f

Problem: For the compound O=C1CS/C(=N\S(=O)(=O)c2ccc(N3N=C4c5ccccc5CC4C3c3cccs3)cc2)N1C(=O)c1ccccc1 (configuration not stated) , is GI50 under 30 µM? f

Problem: For the compound O=C(Nc1ccccc1)NS(=O)(=O)c1ccc(-n2nc3c(c2-c2cccs2)Cc2ccccc2-3)cc1 , is GI50 under 30 µM? t
